Cited source for all entries: patent US20060264369

Overview of reported Kd across a group of binders:
testedTarget: von Willebrand factor full length (Homo sapiens, UniProt P04275 SEQ:764-2813)
methodSummary: filter; 26% bound at 100 nM vWF
studyConditions: tags: Calbiochem 681300; label: 5'-32P
Supply the numeric figure in nM, leaving out any unit text.

Examples with answers:
- GGCGUGCAGUGCCUUCGGCCGTGCGGTGCCTCCGTCACGCC (mixed, 2'-OMe at 1-5, 9-19, 37-41, 3'-idT) [ARC1341]: 22.5
- GGCGTGCAGTGCCTTCGGCCGTGCGGTGCCTCCGTCACGCC (ssDNA, 2'-OMe C30, 3'-idT) [ARC1223]: 36

## Input Recorded Kd for CCGGCCGTGCGGTGCCUCCGUCACGUUCCGUGCAGUGCCGG (mixed, 2'-OMe/deoxy composite, single PS, 3'-idT) [ARC1546] , please?
## Output 24
